assay: Pharmacokinetic profile in rats, subcutaneous; format: in vivo; conditions: Sprague Dawley (CD), rat, sc, male rats, 1 mg/kg, plasma
*1 amine or outer side, *2 acyl side, *3 side chain or, on linkers, in order; H or OH if unused. Where a SMILES comes first, the peptide text is derived from it. Side-chain parts run from the residue outwards. [ ]: non-standard residue; d: D form. The star is where a group is joined. Ethylenediamine = C(CN[*:2])N[*:1]; Hyp = O=C(O)[C@@H]1C[C@@H](O)CN1; Phg = N[C@H](C(=O)O)c1ccccc1; CO = O=C([*:1])[*:2]; Bn = c1ccc(C*)cc1
measured_endpoint: Tmax
Give me the value, and tack the unit on after it.

Short answer for NCCCC[C@@H]1NC(=O)[C@@H](Cc2c[nH]c3ccccc23)NC(=O)[C@H](c2ccccc2)NC(=O)[C@@H]2C[C@@H](OC(=O)NCCN)CN2C(=O)[C@H](Cc2ccccc2)NC(=O)[C@H](Cc2ccc(OCc3ccccc3)cc2)NC1=O [PASIREOTIDE, reference compound] (cyclo([Hyp]([CO-Ethylenediamine])[Phg][dW]KY(Bn)F)) : Tmax was 2 h

====

Please respond with reported IC50 for every item in the list.
target: hSSTR3 (Homo sapiens, UniProt P32745); construct: expressed in transfected cells; test: Binding assay, displacement of 3-[125I]iodotyrosyl11 Somatostatin-14; conditions: recombinant human receptor, cell membranes; 60 min at 25° C.; read-out: IC50 (nM) hSSTR3
Sequence (P32745 whole entry): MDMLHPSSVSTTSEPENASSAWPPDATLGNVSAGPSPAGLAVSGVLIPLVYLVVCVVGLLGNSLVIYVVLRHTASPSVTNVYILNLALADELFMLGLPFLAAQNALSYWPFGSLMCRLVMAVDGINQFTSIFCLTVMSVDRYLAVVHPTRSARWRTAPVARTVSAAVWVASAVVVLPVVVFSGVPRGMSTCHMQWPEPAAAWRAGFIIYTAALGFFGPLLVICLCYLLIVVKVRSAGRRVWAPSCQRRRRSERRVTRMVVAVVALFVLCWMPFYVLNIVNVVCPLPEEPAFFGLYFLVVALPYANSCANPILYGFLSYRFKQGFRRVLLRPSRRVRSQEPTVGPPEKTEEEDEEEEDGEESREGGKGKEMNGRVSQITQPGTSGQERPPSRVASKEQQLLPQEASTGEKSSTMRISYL

| molecule | IC50 |
| --- | --- |
| COc1cc2cccc(OC)c2cc1CC1NC(=O)[C@H](Cc2ccccc2)NC(=O)[C@@H]2C[C@@H](OC(=O)NCCN)CN2C(=O)[C@H](Cc2ccccc2)NC(=O)[C@H](Cc2ccc(OCc3ccccc3)cc2)NC(=O)[C@H](CCCCN)NC1=O (single isomer, unassigned) | 0.31 nM |
| COc1ccc(OC)c(CCC2NC(=O)[C@H](Cc3ccccc3)NC(=O)[C@@H]3C[C@@H](OC(=O)NCCN)CN3C(=O)[C@H](Cc3ccccc3)NC(=O)[C@H](Cc3ccc(OCc4ccccc4)cc3)NC(=O)[C@H](CCCCN)NC2=O)c1 (single isomer, unassigned) | 0.52 nM |
| COc1cc2cccc(OC)c2cc1CC1NC(=O)[C@H](Cc2ccccc2)NC(=O)[C@@H]2C[C@@H](OC(=O)NCCN)CN2C(=O)[C@H](Cc2ccccc2)NC(=O)[C@H](COCc2ccccc2)NC(=O)[C@H](CCCCN)NC1=O (single isomer, unassigned) | 1.8 nM |
| COc1cc(CC2NC(=O)[C@H](Cc3ccccc3)NC(=O)[C@@H]3C[C@@H](OC(=O)NCCN)CN3C(=O)[C@H](Cc3ccccc3)NC(=O)[C@H](Cc3ccc(OCc4ccccc4)cc3)NC(=O)[C@H](CCCCN)NC2=O)c(OC)c2ccccc12 (single isomer, unassigned) [Example 9] | 2.34 nM |

Please find the next molecule below.
Short answer for CNCCNC(=O)O[C@@H]1C[C@H]2C(=O)N[C@@H](Cc3ccccc3)C(=O)NC(Cc3cc4c(OC)cccc4cc3OC)C(=O)N[C@@H](CCCCN)C(=O)N[C@@H](Cc3ccc(OCc4ccccc4)cc3)C(=O)N[C@@H](Cc3ccccc3)C(=O)N2C1 (single isomer, unassigned) : IC50 was 1.33 nM
